Attribution: patent US9365558B2

Target: UniProtKB Q3SYC2
Sequence (Q3SYC2 whole entry): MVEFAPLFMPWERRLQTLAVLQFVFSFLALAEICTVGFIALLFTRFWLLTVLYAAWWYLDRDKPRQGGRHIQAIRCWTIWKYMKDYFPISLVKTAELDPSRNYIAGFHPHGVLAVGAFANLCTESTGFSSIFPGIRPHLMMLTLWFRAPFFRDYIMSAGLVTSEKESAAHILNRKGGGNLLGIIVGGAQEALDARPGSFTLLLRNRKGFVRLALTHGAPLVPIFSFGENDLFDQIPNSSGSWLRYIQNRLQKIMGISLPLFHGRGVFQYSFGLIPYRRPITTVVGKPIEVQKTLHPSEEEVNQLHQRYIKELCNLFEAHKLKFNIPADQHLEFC
Assay: MGAT LCMS Assay
Conditions: recombinant MGAT-2 membranes expressed in Sf9 cells; 100 μM 2-oleoylglycerol, 15 μM oleoyl-Coenzyme A; LC/MS of diolein; read-out: h-MGAT LCMS IC50
Quick reference for IC50 among some molecules

These recorded examples may help you get a feel for the data.
CCCCCCC#C[C@]1(C(F)(F)F)CC(c2ccc(OC(F)F)cc2)=C(C(=O)NS(C)(=O)=O)C(=O)N1 ... 24 nM
CS(=O)(=O)NC(=O)C1=C(c2ccn(C3CCC3)n2)C[C@](c2ccc(OCCCC(F)(F)F)cc2F)(C(F)(F)F)NC1=O ... 7 nM
CS(=O)(=O)NC(=O)C1=C(c2ccc3c(c2)CCC3)C[C@](c2ccc(OCCCC(F)(F)F)cc2F)(C(F)(F)F)NC1=O ... 22 nM
CS(=O)(=O)NC(=O)C1=C(c2ccn(CC3CC3)n2)C[C@](c2ccc(OCCCC(F)(F)F)cc2)(C(F)(F)F)NC1=O ... 23 nM
CN(C)c1ccc(C2=C(C(=O)NS(C)(=O)=O)C(=O)N[C@@](c3ccc(OCCCC(F)(F)F)cc3)(C(F)(F)F)C2)cc1 ... 24 nM
CN(C)c1ccc(C2=C(C(=O)NS(=O)(=O)C3CC3)C(=O)N[C@@](c3ccc(OCCCCCC(F)(F)F)cc3)(C(F)(F)F)C2)cc1 ... 17 nM
CC(C)n1ccc(C2=C(C(=O)NS(C)(=O)=O)C(=O)N[C@@](c3ccc(OCCCC(F)(F)F)cc3F)(C(F)(F)F)C2)n1 ... 20 nM
COc1ccc(C2=C(C(=O)NS(=O)(=O)C3CC3)C(=O)N[C@@](c3ccc(OCCCC(F)(F)F)cc3)(C(F)(F)F)C2)cc1 ... 8 nM

query: Give recorded IC50 with UniProtKB Q3SYC2 for the following molecule: CC(C)(C)c1ccc(C2=C(C(=O)NS(=O)(=O)C3CC3)C(=O)N[C@@](c3ccc(OCCCCCC(F)(F)F)cc3)(C(F)(F)F)C2)cc1
result: 4 nM

query: Given the entry Cc1ccc(C2=C(C(=O)NS(C)(=O)=O)C(=O)N[C@](C)(CCC(C)C)C2)cc1 , what IC50 was observed with UniProtKB Q3SYC2?
result: 114 nM

query: Form entry - test system: UniProtKB Q3SYC2; read-out: IC50; molecule: COc1ccc(C2=C(C(=O)NS(=O)(=O)C3CC3)C(=O)N[C@@](c3ccc(OCCCCCC(F)(F)F)cc3)(C(F)(F)F)C2)cn1
result: 52 nM
